System: Plasmodium falciparum
assay: GSK_TCMDC: Inhibition of Plasmodium falciparum 3D7 in whole erythrocytes, using parasite LDH activity as an index of growth.
Assay type: functional, organism-based
cond: Plasmodium falciparum, 3D7
test.readout: XC50 (nM)
# output: bare number, implied unit nM

Answered cases to consult:
| compound | XC50 (nM) |
| --- | --- |
| Clc1cc2c(Nc3ccc(Oc4ccccc4)cc3)ccnc2cc1-c1ccc(CNCCN2CCOCC2)o1 | 707 |
| Fc1ccc(CNc2nc(-c3ccc(F)c(C(F)(F)F)c3)n(-c3cccc(C(F)(F)F)c3)n2)cc1 | 563 |
| Clc1ccc2c(NN=Cc3cccs3)ccnc2c1 | 922 |
| COc1ccc(S(=O)(=O)NC2CCN(c3ccc(C(F)(F)F)cc3NC(=O)OCC(C)C)CC2)cc1 | 1220 |
| CN(c1cc(NC(=O)c2cccs2)ccn1)C1CCN(Cc2ccccc2)CC1 | 1020 |
| O=C(Nc1ccc(OC2CCN(Cc3ccccc3)CC2)c(Cl)c1)c1ccco1 | 408 |
| Cc1cc(Nc2cccc(C(F)(F)F)c2)nc2ccc(NC(=O)c3ccc(=O)[nH]c3)cc12 | 487 |
| CCc1cc2c3c(N)nc(N)nc3ccc2n1C(C)CC (stereo not given) | 3.2 |

Ask | # lookup: XC50 of CN1CCC(N(Cc2ccc(N3CCN(Cc4c[nH]c5ccc(Cl)cc45)CC3)nc2)C2CC2)CC1
Reply | 999

Ask | Given the compound Cc1cccc2nc(-c3ccc(-c4ccc(NC(=O)C(C)CN5CCN(C)CC5)cc4)s3)[nH]c12 (stereo not given) , what is its reported XC50?
Reply | 731

====

Tested on: Plasmodium falciparum
assay: GSK_TCMDC: Inhibition of Plasmodium falciparum 3D7 in whole erythrocytes, using parasite LDH activity as an index of growth.
Type: functional, organism-based
cond: Plasmodium falciparum, 3D7
// returns False unless XC50 is strictly below 600 nM, in which case True

A selection of reference data follows.
| compound | group |
| --- | --- |
| CCc1nc(N)nc(N)c1-c1ccc(F)cc1 | True |
| COc1ccc(NC(=O)Nc2cccc(-c3cccc(-c4nc5ccccc5[nH]4)c3)c2)cc1 | True |
| Cc1ccc(CC(C)NCC(O)c2cccc(Br)c2)cc1 (centres undefined) | False |

Ask | Given c1cc(-c2ccc(CNCCc3ccncc3)cc2)cc(-c2nc3ccccc3[nH]2)c1 , is recorded XC50 strictly lower than 600 nM?
Reply | True

Ask | Threshold test, XC50 < 600 nM: O=C(Nc1cccc(-c2nn3ncccc3c2-c2ccnc(Nc3cccc(-c4cnco4)c3)n2)c1)c1c(F)cccc1F
Reply | True

Ask | Determine whether this compound shows XC50 lower than 600 nM (ties excluded): COc1ccc2c(c1C1CCN(CCCCNC(=O)c3ccc(-c4ccc(Cl)cn4)cc3)CC1)CCCC2
Reply | False

Ask | Is XC50 of O=C(Nc1ccc(-c2cccc(-c3nc4cc(F)ccc4[nH]3)c2)cc1)c1cnn2cccnc12 strictly below 600 nM?
Reply | False

Ask | Quick check: does Oc1ccc(CCNCCCCCCNCCc2ccc(Cl)c3ccccc23)cc1O have XC50 under 600 nM?
Reply | False

====

System: Plasmodium falciparum
assay: GSK_TCMDC: Inhibition of Plasmodium falciparum 3D7 in whole erythrocytes, using parasite LDH activity as an index of growth.
Format: functional, organism-based
cond: Plasmodium falciparum, 3D7
test.readout: XC50 (nM)
Number in nM, nothing else.

Look over these answered cases.
| compound | XC50, nM |
| --- | --- |
| COc1ccccc1NC(=O)Nc1cccc(-c2cccc(-c3nc4cc(C(F)(F)F)ccc4[nH]3)c2)c1 | 120 |
| Cc1ccc(C(C(=O)Nc2ccc(N3CCNCC3)c(Cl)c2)c2ccccc2)cc1 (stereo not drawn) | 843 |
| O=C(NCc1ccccc1)NC(CCCN1CCC(Oc2cccc(Cl)c2)CC1)c1ccc(Cl)c(Cl)c1 (stereo not drawn) | 862 |
| CS(=O)(=O)Cc1ccc(Nc2nccc(-c3c(-c4cccc(NC(=O)c5c(F)cccc5F)c4)nn4ncccc34)n2)cc1 | 162 |
| N#CN1CC[C@@H](OC(=O)N[C@@H]2C[C@H]2c2ccccc2)C1 | 1340 |

Ask | Item under review: CC(=O)CCc1ccc(OCCN(Cc2ccccc2C(F)(F)F)c2ccc(C#N)c(C(F)(F)F)c2)cc1 . Reported XC50?
Reply | 267

Ask | Which measured XC50 value corresponds to N#Cc1ccc2[nH]c(-c3ccccc3)nc2c1 ?
Reply | 698

Ask | Quick one: XC50 of N#Cc1ccc(-c2ccc(C(=O)NCCCCN3CCC(c4ccc5c(c4OCC(N)=O)CCCC5)CC3)nc2)cc1 ?
Reply | 730

Ask | Reported XC50, compound O=C(Nc1cccc(CN2CCCN(CC3CCCCC3)CC2)c1)c1cc2ccccc2s1 : ____
Reply | 814

Ask | Field request: XC50 | item: COc1ccc(Cn2c(=O)[nH]c3cc(C(=O)NC4CCN(Cc5ccccc5)CC4)ccc3c2=O)cc1
Reply | 751

Ask | Suppose we examine the compound O=C(NCc1cccc(Br)c1)c1ccc(CNC2CCN(Cc3ccccc3)CC2)cc1 ; what XC50 value has been reported?
Reply | 875

Ask | Request the reported XC50 associated with CC(O)c1cccc(-c2ccc(Nc3ccnc4cc(-c5nccs5)ccc34)cc2)c1 (stereo not drawn)
Reply | 1010

Ask | Query (compound): OCC1CCN(Cc2cccc(-c3ccc(-c4nc5cc(C(F)(F)F)ccc5[nH]4)cc3)c2)CC1 ; field requested: XC50
Reply | 662

====

Test system: Plasmodium falciparum
assay: GSK_TCMDC: Inhibition of Plasmodium falciparum 3D7 in whole erythrocytes, using parasite LDH activity as an index of growth.
Type: functional, organism-based
cond: Plasmodium falciparum, 3D7
test.readout: XC50 (nM)
Number in nM, nothing else.

Example entries and their recorded answers appear below.
| molecule | value.units | XC50 |
| --- | --- | --- |
| O=C(/C=C/c1ccc(Cl)c(Cl)c1)N1CCC(CCN2CCC(c3c[nH]c4ccccc34)CC2)CC1 | nM | 602 |
| CCN1C(=O)C(CC(=O)Nc2cccc(Cl)c2)N(Cc2ccc(OC)c(OC)c2)C1=S (stereo not given) | nM | 607 |

Ask | Field request: XC50 | item: CC(C)(C)c1ccc(S(=O)(=O)Nc2ccccc2N2CCOCC2)cc1
Reply | 683

Ask | Given COc1cc(OC)cc(-c2nn(-c3ccc([N+](=O)[O-])cc3Cl)c(=S)n2CC2CCCO2)c1 (stereo not given) , state its recorded XC50.
Reply | 961

Ask | State the recorded XC50 for this entry: CCOc1cc(Cc2cnc(N)nc2N)cc(OCC)c1OCC
Reply | 284

Ask | XC50 lookup needed for N=C(NCCc1ccc(Cl)cc1)c1ccc(Cl)c(Cl)c1 , thanks.
Reply | 1100

Ask | What measured XC50 goes with CCC(NCc1ccc(-c2cncc(C(=O)NCC(C)C)c2)cc1)c1ccccc1 (stereo not given) ?
Reply | 944

Ask | Requested field: XC50. Item: Fc1ccc(-c2cncc(-c3ccc(F)cc3)n2)cc1
Reply | 639

Ask | Please give the measured XC50 for this molecule: CCn1c(-c2nonc2N)nc2c(-c3cccc(NC(=O)Nc4ccccc4OC)c3)ncc(OCCCN)c21
Reply | 1000

Ask | For O=C(NCCc1cccc(Cl)c1Cl)c1ccc(N2CCN(c3ccncc3)CC2)nc1 , what is its reported XC50?
Reply | 1060

Ask | For the molecule shown here, COc1ccccc1CNC(=O)C(=O)Nc1c(-c2ccccc2)[nH]c2ccccc12 , give the reported XC50.
Reply | 737

Ask | I am curious: what XC50 value has been reported for CC[C@H]1CN2CC[C@H]1C[C@H]2[C@H](O)c1cc(N2CCC3CCCCC3C2)nc2ccc(OC)cc12 (stereo not given in full) ?
Reply | 170

Ask | Can you share its XC50? I mean this molecule: O=S(=O)(c1c(Cl)cc(Cl)cc1Cl)N1CCCCC(c2ccc(C(F)(F)F)cc2)=N1
Reply | 95

Ask | Data request, read-out XC50, for COC[C@H]1CCCN1Cc1ccc(-c2ccc(-c3nc4ccccc4[nH]3)s2)cc1
Reply | 1000

Ask | Dear colleague, I am looking for the recorded XC50 of the following molecule: COc1ccccc1NC(=O)c1cc(C(=O)c2cc(Cl)ccc2O)cn(-c2ccccc2OC)c1=O
Reply | 943

Ask | Sample CCCN1CCN(CCCNC(=O)c2cc3c(Cl)nc4ccc(C)cc4c3s2)CC1 — what was its XC50?
Reply | 802

====

Test system: Plasmodium falciparum
assay: GSK_TCMDC: Inhibition of Plasmodium falciparum 3D7 in whole erythrocytes, using parasite LDH activity as an index of growth.
Format: functional, organism-based
cond: Plasmodium falciparum, 3D7
Labelling field: enter 1 (yes) if recorded XC50 is less than 700 nM. Enter 0 (no) if it equals or exceeds that cut-off.

Ask | Confirm or reject: XC50 of COc1ccc2nccc([C@@H](O)CN3CCC(NCc4cc5ccc(Cl)cc5[nH]4)CC3)c2c1 lies strictly below 700 nM
Reply | 1 (yes)

Ask | Find out if reported XC50 for COc1ccc(NS(=O)(=O)c2ccc(C(=O)Nc3ccc(C(F)(F)F)cc3)cc2)cc1N1CCN(CC2CC2)CC1 is less than 700 nM
Reply | 0 (no)

Ask | For O=C(CSc1ccccn1)Nc1c(F)cccc1F , is the recorded XC50 below the cut-off of 700 nM?
Reply | 0 (no)

Ask | Quick check: does Fc1ccc2[nH]c(-c3cccc(-c4cccc(CNCCN5CCNCC5)c4)c3)nc2c1 have XC50 under 700 nM?
Reply | 0 (no)

Ask | For Clc1cccnc1N1CCN(c2ncccc2Cl)CC1 , is the recorded XC50 below the cut-off of 700 nM?
Reply | 1 (yes)

Entry source: ChEMBL document CHEMBL1157539
